molecular target: hFASN enzyme (full length) (Homo sapiens, UniProt P49327); construct: 10 μL hFASN enzyme (full length, 300 ng, purified in house); made in house; assay: Fatty Acid Synthase (FASN) inhibition scintillation proximity assay; type: biochemical; conditions: read-out: Human FASN pIC50 (converted)
Sequence (P49327 whole entry): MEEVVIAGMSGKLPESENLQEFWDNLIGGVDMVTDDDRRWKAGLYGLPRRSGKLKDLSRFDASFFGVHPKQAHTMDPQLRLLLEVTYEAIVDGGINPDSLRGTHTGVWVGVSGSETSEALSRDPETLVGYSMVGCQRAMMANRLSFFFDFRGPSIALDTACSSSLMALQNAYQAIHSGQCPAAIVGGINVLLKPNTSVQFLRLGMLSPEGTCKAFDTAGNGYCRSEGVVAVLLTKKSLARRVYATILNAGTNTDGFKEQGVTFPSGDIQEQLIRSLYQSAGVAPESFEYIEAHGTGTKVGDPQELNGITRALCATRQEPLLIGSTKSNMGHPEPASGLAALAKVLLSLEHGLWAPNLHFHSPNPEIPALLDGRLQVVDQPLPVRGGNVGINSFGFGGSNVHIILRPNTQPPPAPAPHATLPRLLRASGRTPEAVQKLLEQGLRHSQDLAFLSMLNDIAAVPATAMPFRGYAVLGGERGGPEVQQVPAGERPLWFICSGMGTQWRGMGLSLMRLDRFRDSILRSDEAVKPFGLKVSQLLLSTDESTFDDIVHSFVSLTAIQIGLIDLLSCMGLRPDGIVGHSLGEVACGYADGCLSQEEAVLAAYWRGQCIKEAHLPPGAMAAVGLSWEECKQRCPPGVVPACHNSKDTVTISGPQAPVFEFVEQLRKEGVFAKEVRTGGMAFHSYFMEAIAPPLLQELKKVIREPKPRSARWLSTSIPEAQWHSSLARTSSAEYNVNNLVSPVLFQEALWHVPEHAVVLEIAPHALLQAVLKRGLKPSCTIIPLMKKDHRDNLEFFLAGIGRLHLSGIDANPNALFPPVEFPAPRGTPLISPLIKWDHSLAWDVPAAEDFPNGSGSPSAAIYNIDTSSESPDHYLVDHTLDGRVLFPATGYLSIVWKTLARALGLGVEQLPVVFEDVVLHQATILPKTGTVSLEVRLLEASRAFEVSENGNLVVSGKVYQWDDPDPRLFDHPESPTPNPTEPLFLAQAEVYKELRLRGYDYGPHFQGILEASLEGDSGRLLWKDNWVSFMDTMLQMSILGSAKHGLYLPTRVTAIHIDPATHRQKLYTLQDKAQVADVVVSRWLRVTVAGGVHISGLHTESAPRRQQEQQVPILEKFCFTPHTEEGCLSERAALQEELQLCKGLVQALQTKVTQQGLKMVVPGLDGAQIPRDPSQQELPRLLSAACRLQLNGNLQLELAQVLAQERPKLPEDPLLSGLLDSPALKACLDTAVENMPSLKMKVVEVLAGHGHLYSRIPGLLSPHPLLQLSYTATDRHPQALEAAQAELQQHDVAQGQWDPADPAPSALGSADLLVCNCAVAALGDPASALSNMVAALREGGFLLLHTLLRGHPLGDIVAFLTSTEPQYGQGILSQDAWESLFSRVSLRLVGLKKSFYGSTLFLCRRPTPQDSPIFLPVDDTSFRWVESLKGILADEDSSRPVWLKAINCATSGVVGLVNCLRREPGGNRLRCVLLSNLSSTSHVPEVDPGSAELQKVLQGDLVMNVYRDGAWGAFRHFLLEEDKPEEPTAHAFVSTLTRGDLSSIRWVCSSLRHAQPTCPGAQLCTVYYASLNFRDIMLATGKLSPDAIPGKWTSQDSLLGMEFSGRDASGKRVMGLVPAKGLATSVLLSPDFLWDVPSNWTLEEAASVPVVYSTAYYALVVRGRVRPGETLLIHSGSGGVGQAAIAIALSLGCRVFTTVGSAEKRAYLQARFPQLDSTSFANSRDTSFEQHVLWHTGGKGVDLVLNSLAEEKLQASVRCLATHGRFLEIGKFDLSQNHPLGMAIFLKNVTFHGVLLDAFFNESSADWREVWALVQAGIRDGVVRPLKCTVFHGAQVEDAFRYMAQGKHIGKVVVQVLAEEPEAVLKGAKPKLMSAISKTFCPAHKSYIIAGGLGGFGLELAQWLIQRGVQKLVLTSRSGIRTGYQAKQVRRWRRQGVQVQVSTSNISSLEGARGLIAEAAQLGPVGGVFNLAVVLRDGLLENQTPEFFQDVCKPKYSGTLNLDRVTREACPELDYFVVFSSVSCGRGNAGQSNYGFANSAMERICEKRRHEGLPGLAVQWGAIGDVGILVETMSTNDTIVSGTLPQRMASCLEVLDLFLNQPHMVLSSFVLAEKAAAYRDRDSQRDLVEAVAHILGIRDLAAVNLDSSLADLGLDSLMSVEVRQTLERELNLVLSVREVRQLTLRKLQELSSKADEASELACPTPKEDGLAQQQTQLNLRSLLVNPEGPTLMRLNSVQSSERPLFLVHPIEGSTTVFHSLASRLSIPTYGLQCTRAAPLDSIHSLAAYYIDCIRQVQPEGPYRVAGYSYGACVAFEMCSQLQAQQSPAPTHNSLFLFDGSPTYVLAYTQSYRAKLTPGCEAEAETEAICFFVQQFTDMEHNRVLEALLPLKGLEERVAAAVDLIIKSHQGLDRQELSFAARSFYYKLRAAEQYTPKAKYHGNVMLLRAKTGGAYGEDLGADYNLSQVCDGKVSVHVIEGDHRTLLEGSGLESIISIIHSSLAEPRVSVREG
quantityName: IC50 (nM)

Sample answers from the record:
molecule="Cc1cc(C2=NC3(CC3)C(=O)N2C[C@@H]2CCN(C(=O)C3CC3)C2)ccc1-c1cccc2[nH]ncc12 [compound 445]" recordedmeasurement=182
molecule="Cn1nccc1-c1ccc(-c2ccc(C3=NC4(CC4)C(=O)N3CC3CN(C(=O)C4(O)CC4)C3)c(F)c2)cc1 [compound 577]" recordedmeasurement=2340
molecule="Cc1cc(-c2ccc3nn(C)c(C#N)c3c2)ccc1C1=NC2(CC2)C(=O)N1CC1CN(C(=O)C2CC2)C1 [compound 610]" recordedmeasurement=1050

(P) CN(C)CC(=O)N1CCC2(CC1)N=C(c1ccc(-c3ccc4c(cnn4C)c3)cc1)N(C[C@@H]1CCN(C(=O)C3CC3)C1)C2=O [compound 141]
(Q) CC(C)S(=O)(=O)c1cccc(-c2ccc(C3=NC4(CC4)C(=O)N3CC3CN(C(=O)C4CC4)C3)c(F)c2)c1 [compound 631]
(Q) Response body: label of entry with the larger IC50; valid values P , Q . Which one? Tell me its label.
(A) Q
(Q: 8510 nM, P: 251 nM)

(1) O=C(C1CC1)N1CC(CN2C(=O)C3(CC3)N=C2c2ccc(-c3cccc4[nH]ncc34)cc2)C1 [compound 300]
(2) O=C(N1CCCC1)N1CC[C@@H](CN2C(=O)C3(CCOCC3)N=C2c2ccc(-c3ccc4occc4c3)cc2)C1 [compound 671]
(Q) Response body: label of entry with the larger IC50; valid values 1 , 2 . Which one? Tell me its label.
(A) 2

(A) O=C(C1CC1)N1CC[C@@H](CN2C(=O)C3(CC3)N=C2c2ccc(-c3ccc4[nH]ccc4c3)c(F)c2)C1 [compound 234]
(B) COc1nccc2cc(-c3ccc(C4=NC5(CC5)C(=O)N4C[C@@H]4CCN(C(=O)C5CC5)C4)cc3)ccc12 [compound 468]
(C) Cc1cc2cc(-c3ccc(C4=NC5(CCNCC5)C(=O)N4C[C@@H]4CCN(C(=O)C5CC5)C4)cc3)ccc2o1 [compound 155]
(D) O=C(C1CC1)N1CC[C@@H](CN2C(=O)C3(CC3)N=C2c2ccc(-c3ccc4occc4c3)c(F)c2)C1 [compound 232]
(E) Cc1cc2cc(-c3ccc(C4=NC5(CC5)C(=O)N4C[C@@H]4CCN(C(=O)C5CC5)C4)cc3)ccc2s1 [compound 295]
(Q) Order the items by recorded IC50; the first position goes to the largest value. Answer with the labels in sequence, matching the requested order.
(A) C, B, D, E, A
(C: 776 nM, B: 427 nM, D: 83.2 nM, E: 53.7 nM, A: 20.9 nM)

* * *

biological target: hFASN enzyme (full length) (Homo sapiens); construct: 10 μL hFASN enzyme (full length, 300 ng, purified in house); made in house; experiment: Fatty Acid Synthase (FASN) inhibition scintillation proximity assay; type: biochemical; conditions: read-out: Human FASN % inhibition @ 10 μM, 10 μM test compound
quantityName: inhibition at 10 µM (%)

Sample answers from the record:
molecule="O=C(N1CC(CN2C(=O)C3(CC3)N=C2c2ccc(-c3ccc4cc(F)ccc4c3)cc2F)C1)C1(O)CC1 [compound 365]" recordedmeasurement=97
molecule="O=C(C1CC1)N1CC[C@@H](CN2C(=O)C3(CC3)N=C2c2ccc(-c3cccc(C(F)(F)F)c3)cc2)C1 [compound 126]" recordedmeasurement=96.3
molecule="O=C(C1CC1)N1CC[C@@H](CN2C(=O)C3(CCCC3)N=C2c2ccc(-c3ccc(-c4nn[nH]n4)cc3)cc2)C1 [compound 91]" recordedmeasurement=21.3
molecule="CC1(C(=O)N2CC[C@@H](CN3C(=O)C4(CC4)N=C3c3ccc(-c4ccc5cc(F)ccc5c4)cc3F)C2)CC1 [compound 363]" recordedmeasurement=94
molecule="Cc1cc(-c2ccc3[nH]ccc3c2)ccc1C1=NC2(CC2)C(=O)N1C[C@@H]1CCN(C(=O)C2CC2)C1 [compound 284]" recordedmeasurement=106
molecule="Cn1ccc(C(=O)N2CC[C@@H](CN3C(=O)C4(CCCC4)N=C3c3ccc(-c4ccc5occc5c4)cc3)C2)n1 [compound 118]" recordedmeasurement=101
molecule="O=C(N1CCCC1)N1CC[C@@H](CN2C(=O)C3(CCOCC3)N=C2c2ccc(-c3ccc4occc4c3)cc2)C1 [compound 671]" recordedmeasurement=76
molecule="O=C(C1CC1)N1CC(CN2C(=O)C3(CCN(C(=O)C(F)(F)F)CC3)N=C2c2ccc(-c3ccc4c(ccn4C(=O)C(F)(F)F)c3)cc2)C1 [compound 952]" recordedmeasurement=45
molecule="Cc1cc(C2=NC3(CC3)C(=O)N2CC2CN(C(=O)C3CC3)C2)ccc1-c1ccc2oc(C)c(C)c2c1 [compound 814]" recordedmeasurement=39
molecule="CC(C)N1CCC2(CC1)N=C(c1ccc(-c3ccc4[nH]ccc4c3)cc1)N(C[C@@H]1CCN(C(=O)C3CC3)C1)C2=O [compound 744]" recordedmeasurement=98

(a) CS(=O)(=O)N1CC[C@@H](CN2C(=O)C3(CCOCC3)N=C2c2ccc(-c3ccc4cccnc4c3)cc2)C1 [compound 960]
(b) COC(=O)N1CC2(C1)N=C(c1ccc(-c3ccc(-c4cnn(C)c4)cc3)cc1)N(C[C@@H]1CCN(C(=O)C(F)(F)F)C1)C2=O [compound 919]
(Q) Response body: label of entry with the larger inhibition at 10 µM; valid values a , b . Which one? Tell me its label.
(A) b

(P) COC(=O)N1CC[C@@H](CN2C(=O)C3(CCOC3)N=C2c2ccc(-c3ccc4cccnc4c3)cc2)C1 (stereo partly drawn) [compound 683]
(Q) O=C(c1nccs1)N1CC(CN2C(=O)C3(CCOC3)N=C2c2ccc(-c3ccc4cccnc4c3)cc2)C1 (stereo not drawn) [compound 930]
(R) O=C(C1CC1)N1CC(CN2C(=O)C3(CC3)N=C2c2ccc(-c3ccc4c(cnn4CC4CC4)c3)cc2)C1 [compound 804]
(S) O=C(C1CC1)N1CC[C@@H](CN2C(=O)C3(CCCC3)N=C2c2ccc(-c3ccc4[nH]cnc4c3)cc2F)C1 [compound 877]
(Q) Hey, can you sort those molecules up there by inhibition at 10 µM, smallest first? Answer with the labels in sequence, matching the requested order.
(A) Q, R, P, S
(Q: -14%, R: 41%, P: 63%, S: 103%)

(P) O=C(C1CC1)N1CC[C@@H](CN2C(=O)C3(CC3)N=C2c2ccc(-c3ccc4occc4c3)s2)C1 [compound 422]
(Q) CC1(C(=O)N2CC(CN3C(=O)C4(CC4)N=C3c3ccc(-c4ccc5cc(C#N)ccc5c4)cc3F)C2)CC1 [compound 385]
(R) N#CC1(c2ccc(-c3ccc(C4=NC5(CC5)C(=O)N4CC4CN(C(=O)C5CC5)C4)cc3)cn2)CC1 [compound 800]
(Q) Hey, can you sort those molecules up there by inhibition at 10 µM, smallest first? Answer with the labels in sequence, matching the requested order.
(A) R, P, Q
